These data points were gathered from patent US12595504B2.

# Tested on: E. coli MG1655 reporter cells
# Type: cell-based, Escherichia coli
# stated_conditions: antibiotic at 25 μg/mL, LB, 37° C.
measured_property: Lag time before ATP (min)
Use min as the unit, but write only the number.

These solved cases illustrate the format of a correct answer.
Request: Requested read-out: Lag time before ATP. Entry: [H]/N=C(/N)N[C@H]1[C@H](O)[C@@H](O)[C@H](O[C@@H]2O[C@@H](C)[C@](O)(C=O)[C@H]2O[C@@H]2O[C@@H](CO)[C@H](O)[C@@H](O)[C@@H]2NC)[C@@H](N/C(N)=N\[H])[C@@H]1O [Streptomycin]
Response: 21

Request: Requested read-out: Lag time before ATP. Entry: CC(C)(O/N=C(\C(=O)N[C@@H]1C(=O)N2C(C(=O)[O-])=C(C[n+]3ccccc3)CS[C@H]12)c1csc(N)n1)C(=O)O [Ceftazidime]
Response: 40.3

Request: Requested read-out: Lag time before ATP. Entry: NCC[C@H](O)C(=O)N[C@@H]1C[C@H](N)[C@@H](O[C@H]2O[C@H](CN)[C@@H](O)[C@H](O)[C@H]2O)[C@H](O)[C@H]1O[C@H]1O[C@H](CO)[C@@H](O)[C@H](N)[C@H]1O [Amikacin]
Response: 16.0

Request: Requested read-out: Lag time before ATP. Entry: NC[C@H]1O[C@H](O[C@H]2[C@H](O)[C@@H](O[C@H]3O[C@H](CO)[C@@H](O)[C@H](N)[C@H]3O)[C@H](N)C[C@@H]2N)[C@H](O)[C@@H](O)[C@@H]1O [Kanamycin]
Response: 16

Request: Requested read-out: Lag time before ATP. Entry: CC1(C)S[C@@H]2[C@H](NC(=O)[C@H](N)c3ccccc3)C(=O)N2[C@H]1C(=O)O [Ampicillin]
Response: 23

Now for another entry.
Request: Requested read-out: Lag time before ATP. Entry: CO[C@@]1(NC(=O)Cc2cccs2)C(=O)N2C(C(=O)O)=C(COC(N)=O)CS[C@@H]21 [Cefoxitin]
Response: 6.1

* * *

# Test system: E. coli MG1655 reporter cells
# Assay type: cell-based, Escherichia coli
# stated_conditions: antibiotic at 25 μg/mL, LB, 37° C.
# Method: The classical luciferase was from Molecular Probes (ATP Determination Kit (A22066)). The thermostable luciferase was from “CheckLite AT100” (kikkoman). The Luciferin-luciferase reagents were prepared following manufacturer instructions. […] Bioluminescence of each well was monitored for 4 hours under shaking (218 rpm) and at 28 or 37° C., depending on the experiments (see legends of Figures). […]
measured_property: Lag time before ATP (min)
Use min as the unit, but write only the number.

These solved cases illustrate the format of a correct answer.
Request: Requested read-out: Lag time before ATP. Entry: CC1(C)S[C@@H]2[C@H](NC(=O)[C@H](N)c3ccc(O)cc3)C(=O)N2[C@H]1C(=O)O
Response: 8

Request: Requested read-out: Lag time before ATP. Entry: CO/N=C(\C(=O)N[C@@H]1C(=O)N2C(C(=O)O)=C(CSc3nc(=O)c(=O)[nH]n3C)CS[C@H]12)c1csc(N)n1
Response: 16.5

Request: Requested read-out: Lag time before ATP. Entry: Cc1c(N)nc([C@H](CC(N)=O)NC[C@H](N)C(N)=O)nc1C(=O)N[C@H](C(=O)N[C@H](C)[C@@H](O)[C@H](C)C(=O)N[C@H](C(=O)NCCC1=N[C@@H](c2nc(C(=O)NCCCCN=C(N)N)cs2)CS1)[C@@H](C)O)[C@@H](O[C@@H]1O[C@@H](CO)[C@@H](O)[C@H](O)[C@@H]1O[C@H]1O[C@H](CO)[C@@H](O)[C@H](OC(N)=O)[C@@H]1O)c1cnc[nH]1
Response: 113.1

Request: Requested read-out: Lag time before ATP. Entry: C[C@@H]1O[C@@H]1P(=O)(O)O
Response: 26.2

Request: Requested read-out: Lag time before ATP. Entry: C=CC1=C(C(=O)O)N2C(=O)[C@@H](NC(=O)/C(=N\OCC(=O)O)c3csc(N)n3)[C@H]2SC1
Response: 16.7

Now for another entry.
Request: Requested read-out: Lag time before ATP. Entry: CO[C@H]1/C=C/O[C@@]2(C)Oc3c(C)c(O)c4c(O)c(c(/C=N/N5CCN(C)CC5)c(O)c4c3C2=O)NC(=O)/C(C)=C\C=C\[C@H](C)[C@H](O)[C@@H](C)[C@@H](O)[C@@H](C)[C@H](OC(C)=O)[C@@H]1C
Response: 38

* * *

In this section, each of the compounds is paired with its reported Lag time before ATP.
# System: E. coli MG1655 reporter cells
# Type: cell-based, Escherichia coli
# stated_conditions: antibiotic at 200 μg/mL, LB, 37° C.
Use min as the unit, but write only the number.

These solved cases illustrate the format of a correct answer.
Request: Hello, I am looking for reported Lag time before ATP with E. coli MG1655 reporter cells for CO[C@@]1(NC(=O)Cc2cccs2)C(=O)N2C(C(=O)O)=C(COC(N)=O)CS[C@@H]21 . Could you help?
Response: 4.9

Request: Hello, I am looking for reported Lag time before ATP with E. coli MG1655 reporter cells for CC(C)(O/N=C(\C(=O)N[C@@H]1C(=O)N2C(C(=O)[O-])=C(C[n+]3ccccc3)CS[C@H]12)c1csc(N)n1)C(=O)O . Could you help?
Response: 8.0

Request: Hello, I am looking for reported Lag time before ATP with E. coli MG1655 reporter cells for C[C@@H]1O[C@@H]1P(=O)(O)O . Could you help?
Response: 18.6

Request: Hello, I am looking for reported Lag time before ATP with E. coli MG1655 reporter cells for Cc1c(N)nc([C@H](CC(N)=O)NC[C@H](N)C(N)=O)nc1C(=O)N[C@H](C(=O)N[C@H](C)[C@@H](O)[C@H](C)C(=O)N[C@H](C(=O)NCCC1=N[C@@H](c2nc(C(=O)NCCCCN=C(N)N)cs2)CS1)[C@@H](C)O)[C@@H](O[C@@H]1O[C@@H](CO)[C@@H](O)[C@H](O)[C@@H]1O[C@H]1O[C@H](CO)[C@@H](O)[C@H](OC(N)=O)[C@@H]1O)c1cnc[nH]1 . Could you help?
Response: 68.6

Request: Hello, I am looking for reported Lag time before ATP with E. coli MG1655 reporter cells for [H]/N=C(/N)N[C@H]1[C@H](O)[C@@H](O)[C@H](O[C@@H]2O[C@@H](C)[C@](O)(C=O)[C@H]2O[C@@H]2O[C@@H](CO)[C@H](O)[C@@H](O)[C@@H]2NC)[C@@H](N/C(N)=N\[H])[C@@H]1O . Could you help?
Response: 10

Now for another entry.
Request: Hello, I am looking for reported Lag time before ATP with E. coli MG1655 reporter cells for C=CC1=C(C(=O)O)N2C(=O)[C@@H](NC(=O)/C(=N\OCC(=O)O)c3csc(N)n3)[C@H]2SC1 . Could you help?
Response: 14.2

* * *

In this section, each of the compounds is paired with its reported log10 MIC.
# System: Escherichia coli MG1655
# method_notes: Antibiotic MIC determination (serial twofold dilutions, OD600 during 17 hours at 37° C.)
# Type: cell-based
# stated_conditions: Escherichia coli, MG1655, read-out: MIC in MOPS glucose 0.4%; MOPS minimal medium glucose 0.4%, 37° C.
Values are log10 of MIC in µg/mL.

Request: Hello, I am looking for reported log10 MIC with Escherichia coli MG1655 for O=C(N[C@H](CO)[C@H](O)c1ccc([N+](=O)[O-])cc1)C(Cl)Cl . Could you help?
Response: 1.40

---
Request: Hello, I am looking for reported log10 MIC with Escherichia coli MG1655 for CN[C@@H]1[C@@H](O[C@H]2O[C@H](CO)[C@@H](N)[C@H](O)[C@H]2O)OC2C[C@@H](N)[C@@H](O[C@H]3[C@H](O)[C@@H](O)[C@H](N)C[C@@H]3N)OC2[C@@H]1O (stereo partly drawn) . Could you help?
Response: 0.40

Request: Hello, I am looking for reported log10 MIC with Escherichia coli MG1655 for CC1=C(C(=O)O)N2C(=O)[C@@H](NC(=O)[C@H](N)c3ccccc3)[C@H]2SC1 . Could you help?
Response: 1.24

Request: Hello, I am looking for reported log10 MIC with Escherichia coli MG1655 for O=C(O)c1cn(C2CC2)c2cc(N3CCNCC3)c(F)cc2c1=O . Could you help?
Response: 0.80

Request: Hello, I am looking for reported log10 MIC with Escherichia coli MG1655 for CO/N=C(\C(=O)N[C@@H]1C(=O)N2C(C(=O)O)=C(CSc3nc(=O)c(=O)[nH]n3C)CS[C@H]12)c1csc(N)n1 . Could you help?
Response: 0.80

Request: Hello, I am looking for reported log10 MIC with Escherichia coli MG1655 for CN(C)[C@@H]1C(O)=C(C(N)=O)C(=O)[C@@]2(O)C(O)=C3C(=O)c4c(O)cccc4[C@@](C)(O)[C@H]3C[C@@H]12 . Could you help?
Response: 1.10

Request: Hello, I am looking for reported log10 MIC with Escherichia coli MG1655 for CC(C)(O/N=C(\C(=O)N[C@@H]1C(=O)N2C(C(=O)[O-])=C(C[n+]3ccccc3)CS[C@H]12)c1csc(N)n1)C(=O)O . Could you help?
Response: 2.00

Request: Hello, I am looking for reported log10 MIC with Escherichia coli MG1655 for O=C1CN(/N=C/c2ccc([N+](=O)[O-])o2)C(=O)N1 . Could you help?
Response: 1.70

Request: Hello, I am looking for reported log10 MIC with Escherichia coli MG1655 for COc1cc(Cc2cnc(N)nc2N)cc(OC)c1OC . Could you help?
Response: 0.80

Request: Hello, I am looking for reported log10 MIC with Escherichia coli MG1655 for CC[C@H]1OC(=O)[C@H](C)[C@@H](O[C@H]2C[C@@](C)(OC)[C@@H](O)[C@H](C)O2)[C@H](C)[C@@H](O[C@@H]2O[C@H](C)C[C@H](N(C)C)[C@H]2O)[C@](C)(O)C[C@@H](C)C(=O)[C@H](C)[C@@H](O)[C@]1(C)O . Could you help?
Response: 3.20

Request: Hello, I am looking for reported log10 MIC with Escherichia coli MG1655 for CC1(C)S[C@@H]2[C@H](NC(=O)[C@H](N)c3ccc(O)cc3)C(=O)N2[C@H]1C(=O)O . Could you help?
Response: 1.10

Request: Hello, I am looking for reported log10 MIC with Escherichia coli MG1655 for C=CC1=C(C(=O)O)N2C(=O)[C@@H](NC(=O)/C(=N\OCC(=O)O)c3csc(N)n3)[C@H]2SC1 . Could you help?
Response: 1.70

Request: Hello, I am looking for reported log10 MIC with Escherichia coli MG1655 for [H]/N=C(/N)N[C@H]1[C@H](O)[C@@H](O)[C@H](O[C@@H]2O[C@@H](C)[C@](O)(C=O)[C@H]2O[C@@H]2O[C@@H](CO)[C@H](O)[C@@H](O)[C@@H]2NC)[C@@H](N/C(N)=N\[H])[C@@H]1O . Could you help?
Response: 0.80
